# system: human TREX1 (Homo sapiens, UniProt Q9NSU2)
# Construct: N-terminally His-Tev tagged full length human TREX1
# assay.protocol: hTREX1 Biochemical Assay (fluorescence, dsDNA substrate degradation)
# condition.notes: full length human TREX1, 4 h pre-incubation, 18 h reaction at 25° C.
pIC50: −log10 of the molar value.
quantity.name: pIC50

Exam item: Identify the reported pIC50 for the following entry. `Cn1c(C(C)(C)C(c2ccccc2)c2ccccc2)nc(C(=O)Nc2cnoc2)c(O)c1=O`
Marked response: < 7.00

Exam item: Answer with the recorded pIC50 for the compound listed here: C[C@H](c1nc(C(=O)Nc2cnoc2)c(O)c(=O)n1C)[C@H](c1ccccc1)c1ccccc1Cl (single isomer, unassigned) [Example 2 Isomer 3]
Marked response: > 9.00

Exam item: Tell me its pIC50 given Cn1c([C@@H](CF)C(c2ccccc2)c2ccccc2)nc(C(=O)Nc2cnoc2)c(O)c1=O (single isomer, unassigned) [Example 18 Isomer 1] as the entry.
Marked response: 7.00 to 8.00

###

# system: human TREX1 (Homo sapiens)
# Construct: N-terminally His-Tev tagged full length human TREX1
# assay.protocol: hTREX1 Biochemical Assay (fluorescence, dsDNA substrate degradation)
# condition.notes: full length human TREX1, 4 h pre-incubation, 18 h reaction at 25° C.
quantity.name: IC50

compound	IC50
C[C@H](c1nc(C(=O)Nc2cnoc2)c(O)c(=O)n1C)[C@H](c1ccccc1)c1ccccc1C(F)(F)F (single isomer, unassigned) [Example 14 Isomer 2]	1 to 10 nM
CC(c1nc(C(=O)Nc2cnoc2)c(O)c(=O)n1C)C(c1ccccc1)c1cc(Cl)ccc1C#N (single isomer, unassigned) [Example 8 Isomer 1]	> 100 nM
CC(c1nc(C(=O)Nc2cnoc2)c(O)c(=O)n1C)C(c1ccc(F)cc1F)c1ccccc1C#N (single isomer, unassigned) [Example 13 Isomer 4]	> 100 nM
CC(c1nc(C(=O)Nc2cnoc2)c(O)c(=O)n1C)C(c1ccccc1)c1ccccc1 (single isomer, unassigned) [Example 1 Isomer 2]	1 to 10 nM
CC(c1nc(C(=O)Nc2cnoc2)c(O)c(=O)n1C)C(c1ccccc1)c1ccc(Cl)cc1C#N (single isomer, unassigned) [Example 9 Isomer 2]	> 100 nM

Exam item: For the compound CC(c1nc(C(=O)Nc2cnoc2)c(O)c(=O)n1C)C(c1ccc(F)cc1F)c1ccccc1C#N (single isomer, unassigned) [Example 13 Isomer 2] , give its reported IC50.
Marked response: < 1 nM

Exam item: Consider the compound Cn1c([C@H](C(c2ccccc2)c2ccccc2)C(F)(F)F)nc(C(=O)Nc2cnoc2)c(O)c1=O (single isomer, unassigned) [Example 20 Isomer 2] and give its recorded IC50.
Marked response: > 100 nM

Exam item: Please report IC50 for the following compound: CC(c1nc(C(=O)Nc2cnoc2)c(O)c(=O)n1C)C(c1ccccc1)c1ccc(Cl)cc1C#N (single isomer, unassigned) [Example 9 Isomer 1]
Marked response: 1 to 10 nM

###

Measured IC50 accompanies every entry in the list below.
# system: human TREX1 (Homo sapiens)
# Construct: N-terminally His-Tev tagged full length human TREX1
# Sequence (Q9NSU2 1-314): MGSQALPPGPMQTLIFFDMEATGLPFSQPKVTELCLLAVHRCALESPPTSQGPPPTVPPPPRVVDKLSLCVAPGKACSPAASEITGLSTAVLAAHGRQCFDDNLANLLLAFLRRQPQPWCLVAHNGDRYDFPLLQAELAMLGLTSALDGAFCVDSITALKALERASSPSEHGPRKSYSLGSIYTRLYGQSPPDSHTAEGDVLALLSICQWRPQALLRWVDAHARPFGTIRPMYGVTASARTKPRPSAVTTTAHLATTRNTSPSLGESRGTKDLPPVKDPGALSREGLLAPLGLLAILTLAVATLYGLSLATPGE
# assay.protocol: hTREX1 Biochemical Assay (fluorescence, dsDNA substrate degradation)
# condition.notes: full length human TREX1, 4 h pre-incubation, 18 h reaction at 25° C.
# Procedure: Degradation of the dsDNA liberates free fluorophore to produce a fluorescent signal. […] After a 5-minute incubation at room temperature, plates were read in an EnVision plate reader (PerkinElmer) measuring fluorescence at 615 nm following excitation w/ 570 nm light. […]

molecule	IC50
C[C@H](c1nc(C(=O)Nc2cnoc2)c(O)c(=O)n1C)[C@H](c1ccccc1)c1ccc(C(=O)N(C)C)cc1C#N (single isomer, unassigned) [Example 16 Isomer 4]	< 0.001 µM
CC(c1nc(C(=O)Nc2cnoc2)c(O)c(=O)n1C)C(c1ccccc1)c1cc(F)ccc1C#N (single isomer, unassigned) [Example 6 Isomer 3]	> 0.1 µM

As a next step, examine the molecule that follows.
Exam item: Return IC50 for the following molecule: Cn1c([C@H](C(c2ccccc2)c2ccccc2)C(F)(F)F)nc(C(=O)Nc2cnoc2)c(O)c1=O (single isomer, unassigned) [Example 20 Isomer 1]
Marked response: 0.01 to 0.1 µM

###

Reported kon values for the following molecules.
# system: human TREX1 (Homo sapiens)
# Construct: N-terminally His-Tev tagged full length human TREX1; made in house; host or cells: E. coli
# assay.protocol: TREX1 kinetics assays (TR-FRET association and dissociation with biotinylated probe)
# Type: binding
# condition.notes: hTREX1, 25° C., global fit Kintek Explorer
Your answer is read as M⁻¹ s⁻¹, so omit the unit and give the number.

# annotated cases, reported kon shown
molecule	system	kon (M⁻¹ s⁻¹)
CC(c1nc(C(=O)Nc2cnoc2)c(O)c(=O)n1C)C(c1ccccc1Cl)c1ccccc1C#N (single isomer, unassigned) [Example 10 Isomer 1]	human TREX1 (Homo sapiens)	448000
CC(c1nc(C(=O)Nc2cnoc2)c(O)c(=O)n1C)C(c1ccccc1)c1ccccc1 (single isomer, unassigned) [Example 1 Isomer 2]	human TREX1 (Homo sapiens)	50300
C[C@H](c1nc(C(=O)Nc2cnoc2)c(O)c(=O)n1C)[C@H](c1ccccc1)c1ccccc1Cl (single isomer, unassigned) [Example 2 Isomer 3]	human TREX1 (Homo sapiens)	159000

Exam item: Report kon for CC(c1nc(C(=O)Nc2cnoc2)c(O)c(=O)n1C)C(c1ccccc1)c1ccccc1C#N (single isomer, unassigned) [Example 3 Isomer 4]
Marked response: 164000

###

# system: mouse TREX1 (Mus musculus)
# Construct: N-terminally His-Tev tagged full length mouse TREX1
# Sequence (Q91XB0 whole entry): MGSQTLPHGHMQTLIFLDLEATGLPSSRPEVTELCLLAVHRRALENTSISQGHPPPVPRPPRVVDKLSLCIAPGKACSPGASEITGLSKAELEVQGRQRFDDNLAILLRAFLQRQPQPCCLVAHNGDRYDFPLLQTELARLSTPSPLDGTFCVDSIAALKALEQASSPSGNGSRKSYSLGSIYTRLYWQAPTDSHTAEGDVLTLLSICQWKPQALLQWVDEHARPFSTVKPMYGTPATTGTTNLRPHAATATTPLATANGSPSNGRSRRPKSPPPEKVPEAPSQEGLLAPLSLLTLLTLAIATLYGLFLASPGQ
# assay.protocol: mTREX1 Biochemical Assay (fluorescence, dsDNA substrate degradation)
# condition.notes: full length mouse TREX1, 4 h pre-incubation, 18 h reaction at 25° C.
# key: entry, value: IC50

Would you please look over these solved cases?
molecule	system	IC50
CC(c1nc(C(=O)Nc2cnoc2)c(O)c(=O)n1C)C(c1ccccc1)c1cc(C(=O)N(C)C)ccc1C#N (single isomer, unassigned) [Example 17 Isomer 1]	mouse TREX1 (Mus musculus)	> 10 nM
CC(c1nc(C(=O)Nc2cnoc2)c(O)c(=O)n1C)C(c1ccccc1)c1cc(Cl)ccc1C#N (single isomer, unassigned) [Example 8 Isomer 4]	mouse TREX1 (Mus musculus)	> 10 nM
C[C@H](c1nc(C(=O)Nc2cnoc2)c(O)c(=O)n1C)[C@H](c1ccccc1)c1ccccc1Cl (single isomer, unassigned) [Example 2 Isomer 1]	mouse TREX1 (Mus musculus)	> 10 nM

Exam item: Read the entry CC(c1nc(C(=O)Nc2cnoc2)c(O)c(=O)n1C)C(c1ccccc1)c1ccc(F)cc1C#N (single isomer, unassigned) [Example 7 Isomer 1] and write its reported IC50.
Marked response: > 10 nM

Exam item: Please indicate IC50 recorded for CC(c1nc(C(=O)Nc2cnoc2)c(O)c(=O)n1C)C(c1ccccc1Cl)c1ccccc1C#N (single isomer, unassigned) [Example 10 Isomer 3]
Marked response: 1 to 10 nM

Exam item: Entry CC(c1nc(C(=O)Nc2cnoc2)c(O)c(=O)n1C)C(c1ccc(F)c(F)c1)c1ccccc1C#N (single isomer, unassigned) [Example 12 Isomer 4] needs its IC50 filled in; supply it.
Marked response: > 10 nM

Exam item: Fill in reported IC50 for this entry: `Cn1c(C(F)(F)C(c2ccccc2)c2ccccc2)nc(C(=O)Nc2cnoc2)c(O)c1=O`
Marked response: > 10 nM

Exam item: Provide only the value of recorded IC50 for C[C@H](c1nc(C(=O)Nc2cnoc2)c(O)c(=O)n1C)[C@H](c1ccccc1)c1ccccc1C(F)(F)F (single isomer, unassigned) [Example 14 Isomer 3]
Marked response: > 10 nM

Exam item: Given the molecule CC(c1nc(C(=O)Nc2cnoc2)c(O)c(=O)n1C)C(c1ccccc1)c1ccccc1C#N (single isomer, unassigned) [Example 3 Isomer 3] , write its reported IC50.
Marked response: > 10 nM

Exam item: Provide only the value of recorded IC50 for C[C@H](c1nc(C(=O)Nc2cnoc2)c(O)c(=O)n1C)C(c1ccccc1Cl)c1ccccc1Cl (single isomer, unassigned) [Example 15 Isomer 1]
Marked response: < 1 nM

Exam item: Consider the molecule C[C@H](c1nc(C(=O)Nc2cnoc2)c(O)c(=O)n1C)[C@H](c1ccccc1)c1ccccc1C(F)(F)F (single isomer, unassigned) [Example 14 Isomer 2] . State its measured IC50.
Marked response: > 10 nM

Exam item: Note down IC50 recorded for CC(c1nc(C(=O)Nc2cnoc2)c(O)c(=O)n1C)C(c1ccccc1)c1cc(F)ccc1C#N (single isomer, unassigned) [Example 6 Isomer 4]
Marked response: 1 to 10 nM
